Task for the reader: assign each of the following compounds its reported Percent Effect.
- targetOrTestSystem: Shiga toxin 2 (Escherichia coli O157:H7) (UniProt P09385+P09386)
- protocol: E. coli 0.157:H7 Shiga Toxin SOP - stx2 screening assay
- Assay type: functional
- Set-up: scale not given: direction of the effect not stated beside the values
- conditionParameters: 30 µM
Numbers only, in %.

Could you share what Percent Effect was measured for OC(COCc1ccccc1Cl)CN1CC(n2cccn2)C1 (stereo unspecified) , tested on Shiga toxin 2 (Escherichia coli O157:H7) (UniProt P09385+P09386)?
29.1

Now consider CN(C)S(=O)(=O)N1CCC2(CCCN(Cc3ccc(F)cc3)C2=O)C1 (stereo unspecified) .
-20.5

Now consider Cc1cc(N2CCN3CCCCC3C2)n2nc(C)c(C)c2n1 (stereo unspecified) .
4.77

Now consider CC(c1cccnc1)N(C)Cc1csc(-c2ccccn2)n1 (stereo unspecified) .
-14.1

Go through the list and state Percent Effect for each entry.
1. CC(NC(=O)C1=NN(C)C(=O)CC1)c1ccc(Cl)cc1Cl (stereo unspecified)
2. CC1CN(C)c2ccccc2CN1C(=O)CSc1ccncc1 (stereo unspecified)
3. CC(=O)N(C)c1nc(CN2CCCCC2Cn2cncn2)cs1 (stereo unspecified)

1. -19.3
2. -6.66
3. 9.21

Go through the list and state Percent Effect for each entry.
1. CN(C)CCO[C@@H]1CC[C@H]2[C@H]1OCCN2C(=O)COc1ccccc1
2. CCN(C1CCS(=O)(=O)C1)S(=O)(=O)c1cccc2cc(C)cnc12 (stereo unspecified)
3. O=C(c1cc[nH]n1)N1CCCC1C1CCN(Cc2ccccc2)CC1 (stereo unspecified)

[-12.1, 30.4, -28.1]

Could you share what Percent Effect was measured for CNc1ccc(CC2CCCN(C(=O)c3cncnc3C)C2)nn1 (stereo unspecified) , tested on Shiga toxin 2 (Escherichia coli O157:H7) (UniProt P09385+P09386)?
29.8

* * *

Task for the reader: assign each of the following compounds its reported Percent Effect.
- targetOrTestSystem: Aspartate--tRNA(Asp/Asn) ligase (Mycobacterium tuberculosis (strain ATCC 25618 / H37Rv)) (UniProt P9WFW3); further: in the data most compounds retested in dose-response had high values
- Sequence (whole entry): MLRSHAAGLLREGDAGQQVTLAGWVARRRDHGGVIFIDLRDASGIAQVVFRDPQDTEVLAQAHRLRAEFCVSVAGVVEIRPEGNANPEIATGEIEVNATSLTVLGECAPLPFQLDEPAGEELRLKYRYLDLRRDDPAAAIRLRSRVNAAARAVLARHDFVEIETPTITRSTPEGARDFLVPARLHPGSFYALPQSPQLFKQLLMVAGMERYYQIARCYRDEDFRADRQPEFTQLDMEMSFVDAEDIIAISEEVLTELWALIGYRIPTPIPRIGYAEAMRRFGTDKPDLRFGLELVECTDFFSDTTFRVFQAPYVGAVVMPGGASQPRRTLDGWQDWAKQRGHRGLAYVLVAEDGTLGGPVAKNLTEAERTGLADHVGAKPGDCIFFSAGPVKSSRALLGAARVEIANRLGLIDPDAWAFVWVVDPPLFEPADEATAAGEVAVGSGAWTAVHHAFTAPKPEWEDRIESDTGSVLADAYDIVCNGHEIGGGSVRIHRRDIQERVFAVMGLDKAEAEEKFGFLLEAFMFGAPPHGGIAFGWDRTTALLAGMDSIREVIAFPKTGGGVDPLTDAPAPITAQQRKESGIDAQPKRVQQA
- protocol: Assay for Asp RNA synthetase-1 from Mycobacterium tuberculosis
- Format: functional
- Design: scale not given: direction of the effect not stated beside the values
- conditionParameters: 30 µM
Numbers only, in %.

Go through the list and state Percent Effect for each entry.
1. O=C1CC2(CCN(CCO)CC2)CN1Cc1cc(F)cc(F)c1
2. CCc1nccn1-c1cncc(C2CCCN2Cc2ccc(F)cc2)n1 (stereo unspecified)
3. CCN(CC(=O)NC)C(=O)Cc1nc(-c2ccco2)oc1C
4. Cc1cccnc1CN(C)CC1(O)CCCN(CC2CCCCC2)C1=O (stereo unspecified)
5. Cc1nc(C2CCN(C(=O)c3ccc(=O)n(C)c3)CC2)c2sccn12
6. O=C(O)c1ccc(F)c(S(=O)(=O)Nc2ccc(-n3cccn3)c(Cl)c2)c1
7. COCCCNC(=O)CCn1nc(C)c2ccccc21
8. Cc1ccc(C(=O)N2CCn3cc(CN(C)Cc4ccco4)nc3C2)o1

-2.67
1.57
-4.7
-0.871
3.56
-5.11
-2.88
-0.889

Go through the list and state Percent Effect for each entry.
1. CC(Cc1c(F)cccc1F)NC(=O)Nc1cnn(CC(N)=O)c1 (stereo unspecified)
2. CN(Cc1cncnc1)Cc1cn2c(n1)CN(C1CCOC1)CC2 (stereo unspecified)
3. O=C(Cc1cccnc1)N1CCC(OCc2ccccc2)CC1

[-0.509, 7.69, -3.5]
